Record set of pIC50 for target or system Alk (Homo sapiens).
pIC50: −log10 of the molar value.

As a guide, the following entries are already answered.
SMILES_TEXT | MEAS_VALUE
CCc1cc(C)ccc1OC[C@H](O)CNc1cc[nH]c(=O)c1-c1nc2cc3c(cc2[nH]1)CN(C1CCN(C)CC1)C3=O | 5.30 to 6.30
Cc1ncsc1CCN1C(=O)c2cc3nc(-c4c(NC[C@@H](O)c5cccc(Cl)c5)cc[nH]c4=O)[nH]c3cc2C1=O | < 4.82
CCN1CCC(N2Cc3cc4nc(-c5c(NC[C@@H](O)COc6ccc(C)cc6C)cc[nH]c5=O)[nH]c4cc3C2=O)CC1 | > 6.30
CN1CCN(CCN2C(=O)c3cc4nc(-c5c(NC[C@@H](O)c6cccc(Cl)c6)cc[nH]c5=O)[nH]c4cc3C2=O)CC1 | 5.30 to 6.30
Cc1cc(C)c(OC[C@H](O)CNc2cc[nH]c(=O)c2-c2nc3cc4c(cc3[nH]2)C(=O)N(C2CCN(C)CC2)C4=O)cc1Cl | 5.30 to 6.30

The compound listed as CN1CCC(N2Cc3cc4nc(-c5c(NC[C@@H](O)COc6cc(F)ccc6Cl)cc[nH]c5=O)[nH]c4cc3C2=O)CC1 shows pIC50 equal to 5.30 to 6.30

The compound listed as CN1CCC(N2C(=O)c3cc4nc(-c5c(NC[C@@H](O)COc6cccc(C(F)(F)F)c6)ccnc5O)[nH]c4cc3C2=O)CC1 shows pIC50 equal to 4.82 to 5.30

The compound listed as CN1CCC(N2C(=O)c3cc4nc(-c5c(NCCc6c[nH]cn6)cc[nH]c5=O)[nH]c4cc3C2=O)CC1 shows pIC50 equal to 5.30 to 6.30

The compound listed as CN1CCC(N2C(=O)c3cc4nc(-c5c(NC[C@@H](O)COc6cccc(-c7ccccc7)c6)cc[nH]c5=O)[nH]c4cc3C2=O)CC1 shows pIC50 equal to 5.30 to 6.30

The compound listed as CN1CCC(N2Cc3cc4nc(-c5c(NC[C@@H](O)COc6c(F)cccc6Cl)cc[nH]c5=O)[nH]c4cc3C2=O)CC1 shows pIC50 equal to 4.82 to 5.30

----------
target: Alk (Homo sapiens)
Sequence (Q9UM73 1116-1392 limits assumed, species assumed): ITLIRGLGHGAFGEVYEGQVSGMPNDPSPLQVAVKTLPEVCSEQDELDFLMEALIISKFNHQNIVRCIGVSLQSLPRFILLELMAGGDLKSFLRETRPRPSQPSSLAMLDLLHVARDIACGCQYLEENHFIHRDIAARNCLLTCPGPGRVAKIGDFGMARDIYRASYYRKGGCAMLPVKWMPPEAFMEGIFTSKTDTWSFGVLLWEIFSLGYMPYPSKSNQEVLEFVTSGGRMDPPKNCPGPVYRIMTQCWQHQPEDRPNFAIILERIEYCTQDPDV
MEASURED_QUANTITY: IC50

COMPOUND | TESTED_SYSTEM | IC50
Cc1c2c(cc3[nH]c(-c4c(NC[C@@H](O)COc5c(F)ccc(Cl)c5F)cc[nH]c4=O)nc13)C(=O)N(C1CCN(C)CC1)C2=O | Alk (Homo sapiens) | 5 to 15 µM
COc1ccccc1OCC(O)CNc1cc[nH]c(=O)c1-c1nc2cc3c(cc2[nH]1)C(=O)N(C1CCN(C)CC1)C3=O (stereo not shown) | Alk (Homo sapiens) | 5 to 15 µM
CN1CCC(N2Cc3cc4[nH]c(-c5c(NC[C@@H](O)COc6ccc(F)cc6Br)cc[nH]c5=O)nc4cc3C2=O)CC1 | Alk (Homo sapiens) | 0.5 to 5 µM
C[C@H](O)CN1C(=O)c2cc3nc(-c4c(NC[C@@H](O)c5cccc(Cl)c5)cc[nH]c4=O)[nH]c3cc2C1=O | Alk (Homo sapiens) | > 15 µM
CN1CCC(N2C(=O)c3cc4nc(-c5c(NC[C@@H](O)COc6ccc(F)c(Cl)c6)ccnc5O)[nH]c4cc3C2=O)CC1 | Alk (Homo sapiens) | 5 to 15 µM
COc1cc(C#N)ccc1OC[C@H](O)CNc1ccnc(O)c1-c1nc2cc3c(cc2[nH]1)C(=O)N(C1CCN(C)CC1)C3=O [compound 50] | Alk (Homo sapiens) | 5 to 15 µM

The compound listed as O=C1c2cc3nc(-c4c(NC[C@@H](O)c5cccc(Cl)c5)cc[nH]c4=O)[nH]c3cc2C(=O)N1[C@@H]1CN2CCC1CC2 shows IC50 equal to 0.5 to 5 µM

The compound listed as CN1CCC(N2C(=O)c3cc4nc(-c5c(NC[C@@H](O)COc6c(F)ccc(Cl)c6F)cc[nH]c5=O)[nH]c4cc3C2=O)CC1 shows IC50 equal to 0.5 to 5 µM

The compound listed as CN1CCC(N2C(=O)c3cc4nc(-c5c(NC[C@@H](O)COc6ccc(F)cc6)cc[nH]c5=O)[nH]c4cc3C2=O)CC1 shows IC50 equal to 0.5 to 5 µM

The compound listed as Cc1ccc(OC[C@H](O)CNc2cc[nH]c(=O)c2-c2nc3cc4c(cc3[nH]2)C(=O)N(CCCN2CCCC2)C4=O)c(C)c1 shows IC50 equal to 5 to 15 µM

The compound listed as Cc1ccc(OC[C@@H](O)CNc2cc[nH]c(=O)c2-c2nc3cc4c(cc3[nH]2)C(=O)N([C@@H]2CCN(C)C2)C4=O)c(C)c1 shows IC50 equal to 0.5 to 5 µM

The compound listed as CN1CCC(N2C(=O)c3cc4nc(-c5c(NC[C@@H](O)COc6cccc7c6OC(F)C(F)(F)O7)cc[nH]c5=O)[nH]c4cc3C2=O)CC1 (stereo partly shown) shows IC50 equal to 0.5 to 5 µM

The compound listed as CCN1CCC(N2C(=O)c3cc4nc(-c5c(NC[C@@H](O)COc6ccc(C)cc6C)cc[nH]c5=O)[nH]c4cc3C2=O)CC1 shows IC50 equal to < 0.5 µM

----------
pIC50: −log10 of the molar value.
Record set of pIC50 for target or system Alk (Homo sapiens).

SMILES_TEXT | pIC50
Cc1cc(C)c(OC[C@H](O)CNc2cc[nH]c(=O)c2-c2nc3cc4c(cc3[nH]2)C(=O)N(C2CCN(C)CC2)C4=O)c(CS(C)(=O)=O)c1 | 5.30 to 6.30
CN1CCC(N2Cc3cc4nc(-c5c(NC[C@@H](O)COc6c(F)ccc(F)c6Cl)cc[nH]c5=O)[nH]c4cc3C2=O)CC1 | 4.82 to 5.30
CN(C)CC(C)(C)CN1C(=O)c2cc3nc(-c4c(NC[C@@H](O)c5cccc(Cl)c5)ccnc4O)[nH]c3cc2C1=O | 4.82 to 5.30
Cc1c(Cl)cccc1OC[C@H](O)CNc1cc[nH]c(=O)c1-c1nc2c(C)c3c(cc2[nH]1)C(=O)N(C1CCN(C)CC1)C3=O | 5.30 to 6.30
COc1cc(F)ccc1OC[C@H](O)CNc1ccnc(O)c1-c1nc2cc3c(cc2[nH]1)C(=O)N(C1CCN(C)CC1)C3=O | 5.30 to 6.30

As a next step, examine the compound that follows.
Alk (Homo sapiens) pIC50 of O=C1c2cc3nc(-c4c(NC[C@@H](O)c5cccc(Cl)c5)cc[nH]c4=O)[nH]c3cc2C(=O)N1CCCN1CCOCC1 is < 4.82

----------
system: CHO (chinese hamster ovary); assay: Cell proliferation inhibition, Cell Titer-Glo, CHO; assay type: cell-based; conditions: Cricetulus griseus; cell proliferation assay, CHO cells
pIC50: −log10 of the molar value.
MEASURED_QUANTITY: pIC50

As a guide, the following entries are already answered.
SMILES_TEXT | MEASURED_QUANTITY | MEAS_VALUE
CCN1CCC(N2Cc3cc4nc(-c5c(NC[C@@H](O)COc6ccc(C)cc6C)cc[nH]c5=O)[nH]c4cc3C2=O)CC1 | pIC50 | 4.82 to 5.30
CCc1c(OC[C@H](O)CNc2cc[nH]c(=O)c2-c2nc3cc4c(cc3[nH]2)CN(C2CCN(C)CC2)C4=O)ccc2c1OCO2 | pIC50 | 4.82 to 5.30
Cc1ccc(OC[C@H](O)CNc2cc[nH]c(=O)c2-c2nc3cc4c(cc3[nH]2)C(=O)N(C2CCNCC2)C4=O)c(C)c1 | pIC50 | 4.82 to 5.30
Cc1c(OC[C@H](O)CNc2cc[nH]c(=O)c2-c2nc3cc4c(cc3[nH]2)CN(C2CCN(C)CC2)C4=O)ccc2c1OCO2 | pIC50 | < 4.82
CN1CCC(N2Cc3cc4nc(-c5c(NC[C@@H](O)COc6c(F)cccc6Cl)cc[nH]c5=O)[nH]c4cc3C2=O)CC1 | pIC50 | < 4.82
CN1CCC(N2Cc3cc4nc(-c5c(N[C@@H](CO)Cc6ccccc6)cc[nH]c5=O)[nH]c4cc3C2=O)CC1 | pIC50 | < 4.82

The compound listed as CN1CCC(N2Cc3cc4[nH]c(-c5c(NC[C@@H](O)COc6cc(F)c(F)cc6Br)cc[nH]c5=O)nc4cc3C2=O)CC1 shows pIC50 equal to < 4.82

The compound listed as CN1CCC(N2Cc3cc4nc(-c5c(NC[C@@H](O)COc6cccc(C(F)(F)F)c6Cl)cc[nH]c5=O)[nH]c4cc3C2=O)CC1 shows pIC50 equal to < 4.82

The compound listed as Cc1ccc2c(ccn2C[C@H](O)CNc2cc[nH]c(=O)c2-c2nc3cc4c(cc3[nH]2)C(=O)N(C2CCN(C)CC2)C4=O)c1 shows pIC50 equal to 4.82 to 5.30

The compound listed as Cc1ccc(OC[C@H](O)CNc2cc[nH]c(=O)c2-c2nc3c(C)c4c(cc3[nH]2)C(=O)N(C2CCN(C)CC2)C4)c(C)c1 shows pIC50 equal to < 4.82

The compound listed as Cc1ccc(OC[C@H](O)CNc2cc[nH]c(=O)c2-c2nc3cc4c(c(C)c3[nH]2)CN(C2CCN(C)CC2)C4=O)c(C)c1 shows pIC50 equal to < 4.82

The compound listed as CN1CCC(N2Cc3cc4nc(-c5c(NC[C@@H](O)COc6cc(F)cc(F)c6Cl)cc[nH]c5=O)[nH]c4cc3C2=O)CC1 shows pIC50 equal to < 4.82

The compound listed as CN1CCC(N2Cc3cc4nc(-c5c(NC[C@@H](O)COc6cc7c(cc6Cl)OCO7)cc[nH]c5=O)[nH]c4cc3C2=O)CC1 shows pIC50 equal to < 4.82

src = patent US8063225B2
